Target: Glucocorticoid receptor (Homo sapiens) (UniProt P04150)
Sequence (P04150 whole entry, looked up): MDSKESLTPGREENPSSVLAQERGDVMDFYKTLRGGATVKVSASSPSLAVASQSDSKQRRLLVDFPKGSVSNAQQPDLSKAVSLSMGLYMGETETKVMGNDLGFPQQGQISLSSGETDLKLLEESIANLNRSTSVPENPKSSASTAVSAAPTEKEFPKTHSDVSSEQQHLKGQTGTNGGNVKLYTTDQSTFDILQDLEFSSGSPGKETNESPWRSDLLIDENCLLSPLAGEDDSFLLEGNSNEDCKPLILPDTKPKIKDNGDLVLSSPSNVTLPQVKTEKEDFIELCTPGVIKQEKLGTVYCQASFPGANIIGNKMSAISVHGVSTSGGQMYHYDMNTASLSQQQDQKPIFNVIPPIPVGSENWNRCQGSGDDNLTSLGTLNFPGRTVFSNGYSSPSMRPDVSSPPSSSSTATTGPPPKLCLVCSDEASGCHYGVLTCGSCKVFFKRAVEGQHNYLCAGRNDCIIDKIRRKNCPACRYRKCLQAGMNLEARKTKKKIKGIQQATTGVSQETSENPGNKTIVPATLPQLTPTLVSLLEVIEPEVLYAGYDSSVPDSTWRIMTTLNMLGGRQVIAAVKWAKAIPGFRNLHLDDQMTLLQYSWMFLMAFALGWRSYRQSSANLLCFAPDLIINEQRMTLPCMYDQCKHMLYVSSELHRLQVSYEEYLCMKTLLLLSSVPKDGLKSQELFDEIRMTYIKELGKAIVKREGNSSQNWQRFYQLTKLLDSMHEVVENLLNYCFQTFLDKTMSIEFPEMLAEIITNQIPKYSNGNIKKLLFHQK
Assay: GR-EFC Redistribution (AID 451); further: potency means the concentration at half of the fitted maximal effect
Conditions: CHO-K1 GR-EFC translocation, beta-gal luminescence, 2 h
The source made the active and inactive calls. The call rests on the fitted dose curve.
Exercise: state measured Potency for each of the compounds provided.

Challenge: What measured Potency goes with "NC(=O)Nc1n[nH]c(-c2ccccc2)n1" ?
Response given: > 9.22 µM (inactive)

Challenge: Return reported Potency; argument: "O=C(O)CCc1c2ccc(=O)c(O)c-2oc2c(O)c(O)ccc12"
Response given: > 9.22 µM (inactive)

Challenge: Tell me the measured Potency of "O=c1c(CCc2ccccc2)nc2cnc(Oc3cccc(Cl)c3)nc2n1C[C@H]1CCCO1" , please.
Response given: > 46 µM (inactive)

Challenge: Field request: Potency | item: "Cc1c(-c2nc(N)nc(C3CC3)c2C)nc(N)nc1C1CC1"
Response given: > 9.22 µM (inactive)

Challenge: Value lookup for Potency; key = "Cn1c(=O)c2[nH]c(CCNC(=O)c3ccccc3)nc2n(C)c1=O"
Response given: > 9.22 µM (inactive)

Challenge: Which Potency value is on record for "CC(C)Cn1cnc2c(SCc3ccccn3)nc(N)nc21" ?
Response given: > 9.22 µM (inactive)

Challenge: Need Potency, item "Cc1noc(C)c1C(=O)N1CCC[C@@]2(CCN(c3cccc(-c4ccccc4)c3)C2)C1"
Response given: > 46 µM (inactive)

Challenge: What value of measured Potency is listed for "O=S(=O)(O)c1ccc2c(N=Nc3cccc4ccccc34)c(O)c(S(=O)(=O)O)cc2c1" ?
Response given: > 9.22 µM (inactive)

Challenge: Item "O=C(O)CCCCCC[C@@H]1C(=O)NC(=O)N1CC[C@@H](O)C1CCCCC1" has what recorded Potency?
Response given: > 46 µM (inactive)

Challenge: Give the measured Potency of "CC(C)CCC[C@@H](C)[C@@H]1CC[C@@H]2[C@H]3CC[C@H]4C[C@@H](N)CC[C@@]4(C)[C@@H]3CC[C@]21C" .
Response given: > 9.22 µM (inactive)

Challenge: GET /values?readout=Potency&item= "CN(C)C[C@H]1CCC[C@@H](CN(C)C)C1=O"
Response given: > 9.22 µM (inactive)

Challenge: Find the recorded Potency belonging to "Cc1cc(OCc2nc(N)nc(N)c2-c2ccc(Cl)c(Cl)c2)ccc1[N+](=O)[O-]" and report it.
Response given: > 9.22 µM (inactive)

Challenge: Which Potency reading was recorded for the compound "N/C(CC/C(N)=N/O)=N\O" ?
Response given: > 9.22 µM (inactive)

Challenge: Dear colleague, I am looking for the recorded Potency of the following compound: "O=C(N/N=C\c1cccc(O)c1)c1ccncc1"
Response given: > 9.22 µM (inactive)

Challenge: Query: Potency; subject: "O=C(O)c1ccccc1-c1ccccc1C(=O)c1ccccc1"
Response given: > 9.22 µM (inactive)

Challenge: Using the record for "Cc1cccc(C)c1OC[C@@H](N)C(C)C" , report its Potency.
Response given: > 46 µM (inactive)

Challenge: Potency lookup needed for "Nc1cccc2cc(S(=O)(=O)Nc3ccc(C(=O)O)cc3)ccc12" , thanks.
Response given: > 9.22 µM (inactive)

Challenge: Give its Potency value. Item: "CN1CCN(CC(=O)N2c3ccccc3Sc3cc4ccccc4cc32)CC1"
Response given: > 9.22 µM (inactive)

Challenge: # input compound: "C[C@H]1O[C@@H](CC(=O)O)Cc2c1c(O)c1c(O)cc(-c3cc(=O)c4c(=O)c5c(c(=O)c=4c3=O)C[C@H](CC(=O)O)O[C@@H]5C)c(O)c1c2O" ; wanted: its Potency
Response given: > 9.22 µM (inactive)

Challenge: Name the recorded Potency for "O=C(O)CCNCC(=O)O" .
Response given: > 9.22 µM (inactive)

Challenge: Dear colleague, I am looking for the recorded Potency of the following compound: "Oc1cc(CN2COc3ccccc32)c(O)cc1CNC1CCCCC1"
Response given: > 9.22 µM (inactive)

Challenge: Item "COc1cccc2[nH]c(-c3ccccn3)nc12" has what recorded Potency?
Response given: > 9.22 µM (inactive)

---

Assay: Cell Viability - LYMP2-007 (AID 979);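 further: cells exposed to compound for 24 h before reading; nearly all actives have a fitted effect of over 60% in size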
Conditions: LYMP2-007 lymphoblastoid cell viability; series mostly up to 92.2 µM
Results filed as inconclusive are left out. The source made the active and inactive calls. Calls follow the shape of the dose curve; as a rule, active = well fitted cell-killing curve with a large enough effect; inconclusive = small, poorly fitted or top-dose-only effect; inactive = flat fitted curve, though single readings scatter.
Hello, when you answer, please use one of the following outcomes: label 1 (active), label 0 (inactive)

Challenge: Please share the test call associated with "c1ccncc1" .
Response given: label 0

Challenge: Test call for this molecule, please: CCCCC(CC)COC(=O)COc1ccc(Cl)cc1Cl (stereo not given)
Response given: label 0

Challenge: What call does the record list for "COc1cc(-c2ccc(N=C=O)c(OC)c2)ccc1N=C=O" ?
Response given: label 0

Challenge: What did this assay record as the result for "OCC(CO)(CBr)CBr" ?
Response given: label 0

Challenge: Could you check what this test reported for "c1c[nH]cn1" ?
Response given: label 0

Challenge: Record request — test call for "CCOc1ccc2nc(N)sc2c1"
Response given: label 0

Challenge: Can you look up the reported call for "Oc1c(Cl)cc(Cl)c(Cl)c1Cl" for me?
Response given: label 0

Challenge: Could you check what this test reported for "C=C(C#N)C(=O)OCC" ?
Response given: label 0

Challenge: GET /call?item= "C=CC(=O)OCCCCCCOC(=O)C=C" returns the recorded outcome of this test.
Response given: label 1

Challenge: Each molecule tested received a call. Report the one for "O=C(Cl)c1ccc([N+](=O)[O-])cc1" .
Response given: label 0

Challenge: Which outcome was assigned to "Brc1cc(Br)c(Oc2cc(Br)c(Br)cc2Br)cc1Br" in this test?
Response given: label 0

Challenge: Dear all, I need the recorded test outcome for "O=C(OCc1ccccc1)c1ccccc1O" , thank you.
Response given: label 0

Challenge: Dear all, I need the recorded test outcome for "CC(C)(C)C(=O)C1C(=O)c2ccccc2C1=O" , thank you.
Response given: label 0

Challenge: Could you check what this test reported for C=CC1CO1 (stereo not given) ?
Response given: label 0

Challenge: Assay result, entry "OCC(CBr)(CBr)CBr" — outcome?
Response given: label 0

---

Target: Glucocorticoid receptor (Homo sapiens) (UniProt P04150)
Test: GR-EFC Redistribution (AID 451); further: potency means the concentration at half of the fitted maximal effect
Conditions: CHO-K1 GR-EFC translocation, beta-gal luminescence, 2 h
Calls of active or inactive are those of the source. Calls follow the shape of the full dose curve.
Provide the recorded Potency for the entries that follow.

Challenge: Consider the molecule "CN(/N=C\c1ccccc1O)c1ccc2ccccc2n1" and give its measured Potency.
Response given: > 9.22 µM (inactive)

Challenge: Name the recorded Potency for "Cc1ccc(S(=O)(=O)Nc2ccccc2C(=O)c2ccc(C)c(C)c2)cc1" .
Response given: > 9.22 µM (inactive)

Challenge: Which Potency is reported for this molecule? "CN(C)C(=O)C1CCN(Cc2c[nH]c3ccccc23)CC1"
Response given: > 9.22 µM (inactive)

Challenge: Name the recorded Potency for "FC(F)(F)c1nc2nc(Cl)c(Cl)nc2n1CCCN1CCOCC1" .
Response given: > 9.22 µM (inactive)

Challenge: Could you share which Potency value was measured for "CNC(=O)[C@@H]1O[C@@H](n2cnc3c(NCc4ccc(N)cc4)ncnc32)[C@@H](O)[C@H]1O" ?
Response given: > 46 µM (inactive)

Challenge: Query: Potency; subject: "O=C(CON1C(=O)c2ccccc2C1=O)c1ccccc1"
Response given: > 9.22 µM (inactive)

Challenge: Returns the measured Potency for the input molecule. Input: "N=c1ccn2c(n1)O[C@H]1[C@@H](OP(=O)(O)O)[C@H](CO)O[C@H]12"
Response given: > 9.22 µM (inactive)

Challenge: Given "C[C@@H](N)[C@@H](C)Cc1ccccc1" , state its recorded Potency.
Response given: > 9.22 µM (inactive)

Challenge: So what does the record say about Potency for "CC(=O)CC(=O)Nc1ccc2ccccc2c1" ?
Response given: > 9.22 µM (inactive)

Challenge: So what does the record say about Potency for "Cc1cccc(Cl)c1NC[C@H](O)CN1CCN(C)CC1" ?
Response given: > 9.22 µM (inactive)

Challenge: Potency lookup needed for "COc1ccc(C(=O)N2CCC[C@@]3(CCN(c4ccccc4)C3)C2)cc1" , thanks.
Response given: > 46 µM (inactive)

Challenge: Query: Potency; subject: "CCNc1ncc2nc(-c3ccccc3)c(=O)n(C3CC3)c2n1"
Response given: > 46 µM (inactive)

Challenge: Fill in: Potency of "N=C1CCC[C@@H]1C(=S)SCCC(N)=O" is ___
Response given: > 9.22 µM (inactive)

Challenge: Reported Potency for "O=C(CSC1=NCCN1)Nc1ccccc1" : what is it?
Response given: > 9.22 µM (inactive)

Challenge: Need Potency of "[N-]=[N+]=NC[C@@H]1O[C@@H](n2cnc3c(N)ncnc32)[C@@H]2O[C@@H]21" , thanks.
Response given: > 9.22 µM (inactive)

Challenge: Item "O=C(O)c1cc(C(=O)O)nc(C(=O)O)c1" has what recorded Potency?
Response given: > 9.22 µM (inactive)

Challenge: Quick one: Potency for "N#CCCn1c(=O)c(-c2ccccc2)nc2cnc(OCc3ccccc3)nc21" ?
Response given: > 46 µM (inactive)

Challenge: Give the measured Potency of "O=S(=O)(NCCNC/C=C\c1ccc(Br)cc1)c1cccc2cnccc12" .
Response given: > 46 µM (inactive)

Challenge: Please report the recorded Potency for "CC(C)[C@](N)(C(=O)O)c1ccccc1" .
Response given: > 9.22 µM (inactive)

Challenge: If you can, please state the reported Potency value of "C[C@H](CCC(=O)O)[C@H]1CC[C@@H]2[C@H]3CC[C@H]4C[C@H](O)CC[C@@]4(C)[C@@H]3CC[C@@]21C" .
Response given: > 9.22 µM (inactive)

Challenge: What value of Potency has been reported for the following molecule? "O[C@H](CNc1ccccn1)c1ccccc1"
Response given: > 9.22 µM (inactive)

Challenge: What value of measured Potency is listed for "NC(N)=NCCCC(=O)O" ?
Response given: > 9.22 µM (inactive)

Challenge: Param item = "O=S(=O)(c1cnccc1N1CCN(CCO)CC1)N1CCCC1" ; retrieve measured Potency.
Response given: > 9.22 µM (inactive)

Challenge: Would you mind telling me what Potency value was observed for "Cc1cc(N2CCN(C)CC2)n2nc(-c3ccc(Cl)cc3)nc2n1" ?
Response given: > 9.22 µM (inactive)

Challenge: Could you share which Potency value was measured for "NC(=O)NOC[C@@H]1NC(=O)NC1=O" ?
Response given: > 9.22 µM (inactive)

Challenge: Look up Potency for this molecule: "Cc1nc2cnc(Oc3ccccc3)nc2n(CCc2ccccc2)c1=O"
Response given: > 46 µM (inactive)

Challenge: Please give the measured Potency for this molecule: "N=C(N)SCc1cccc(-c2nc3ccccc3c(=O)o2)c1"
Response given: > 9.22 µM (inactive)

Challenge: Return reported Potency; argument: "O=c1cnc2cnc(N3CCNCC3)nc2n1CCc1ccccc1"
Response given: > 46 µM (inactive)

Challenge: Data request, read-out Potency, for "CC(=O)Nc1nc2ncc(C=O)nc2c(=O)[nH]1"
Response given: > 9.22 µM (inactive)

Challenge: Consider the molecule "CCCCCCCCCC[Si](C)(C)CCC(=O)N[C@@H](Cc1ccc(C)cc1)c1ccccc1" and give its measured Potency.
Response given: > 46 µM (inactive)

Challenge: Fill blank: measured Potency of the molecule "N[C@@H](CSc1nc2ccccn2c1[N+](=O)[O-])C(=O)O" is ____.
Response given: > 9.22 µM (inactive)

Challenge: Name the reported Potency value associated with the molecule "O[C@H]([C@H](O)[C@@H](O)c1nc2ccccc2[nH]1)[C@@H](O)c1nc2ccccc2[nH]1"
Response given: > 9.22 µM (inactive)

Challenge: // Potency lookup, key: "O=C1CN2CCN(CC2)CC(=O)Nc2ccc(cc2)S(=O)(=O)c2ccc(cc2)NC(=O)CN2CCN(CC2)CC(=O)Nc2ccc(cc2)S(=O)(=O)c2ccc(cc2)N1"
Response given: > 9.22 µM (inactive)

Challenge: Requested field: Potency. Item: "Cc1ccc(N=Nc2ccc(N)cc2C)c(S(N)(=O)=O)c1"
Response given: > 9.22 µM (inactive)

Challenge: What value of Potency has been reported for the following molecule? "CCCCNN"
Response given: > 9.22 µM (inactive)

Challenge: Given the molecule "O=C(O)c1cc(=O)[nH]c(=S)[nH]1" , what is its reported Potency?
Response given: > 9.22 µM (inactive)

Challenge: For C[N+]1(CCC(=O)c2ccco2)CC2CCC(CC2)C1 (stereo unspecified) , what is its reported Potency?
Response given: > 9.22 µM (inactive)

Challenge: Would you mind telling me what Potency value was observed for "CC1=NN(c2ccccc2)C(=O)[C@@H]1N=Nc1ccc(S(N)(=O)=O)cc1" ?
Response given: > 9.22 µM (inactive)

Challenge: // Potency lookup, key: "OC[C@@H]1O[C@H](O)[C@@H](Cl)[C@H](O)[C@@H]1O"
Response given: > 46 µM (inactive)

Challenge: If you can, please state the reported Potency value of "Oc1ccc(Cc2cc(Cl)cc(Cl)c2O)cc1Cl" .
Response given: > 9.22 µM (inactive)

Challenge: Form field: reported Potency of "O[C@@H](c1cc(-c2ccc(Cl)cc2)nc2ccccc12)[C@@H]1CCCCN1"
Response given: > 9.22 µM (inactive)

Challenge: Quick one: Potency of "Cc1ccc(N=Nc2c(O)ccc3cc(S(=O)(=O)O)ccc23)cc1" ?
Response given: > 9.22 µM (inactive)

Challenge: Using the record for "C[N+](C)(C)/N=C\c1ccc(O)c(O)c1" , report its Potency.
Response given: > 9.22 µM (inactive)

Challenge: I am curious: what Potency value has been reported for "COc1ccc(Oc2ncc3nc(C)c(=O)n(-c4ccc(OC)cc4)c3n2)cc1" ?
Response given: > 46 µM (inactive)

Challenge: Would you mind telling me what Potency value was observed for "O=S(=O)(O)c1ccc2c(N=Nc3c(O)ccc4ccccc34)cccc2c1" ?
Response given: > 9.22 µM (inactive)

Challenge: Can you share its Potency? I mean this molecule: "OC1(C(O)(c2ccc(-c3ccccc3)cc2)c2ccc(-c3ccccc3)cc2)CCCCC1"
Response given: > 9.22 µM (inactive)
